Where do the numbers come from? From the METLIN SMRT retention time set (Domingo-Almenara et al. 2019).

# test-details: gradient 5% acetonitrile 3 min, to 50% in 2 min, to 85% in 15 min, held 3 min, 100 µL/min
# measurement-context: column: Zorbax Extend-C18 2.1 x 50 mm; eluents: water / acetonitrile, 0.1% formic acid
Below, each of the compounds is paired with its reported RP-LC retention time value.

Field: example entries. Status: answers known.
CCN(c1ccccc1)S(=O)(=O)c1cc(-c2[nH]ncc2C(=O)N(C)C)oc1C    739 s
Cc1ccc(C)c(NC(=O)C(=O)NCC(c2ccc3c(c2)CCCN3C)N2CCOCC2)c1 (stereo not given)    601 s
O=C(Nc1cccc(F)c1)N1CCC(N2CCN(Cc3ccccc3)C(=O)C2=O)CC1    732 s
O=C([C@@H]1C[C@H](F)CN1S(=O)(=O)c1cccc(Cl)c1)N1CCc2ccccc2C1    927 s

Proceed to the following item.
q: Could you share which RP-LC retention time value was measured for `CCCn1cc(CCNC(=O)Nc2ccccc2C)c2cccnc21` ?
a: 717 s
